Overview of recorded IC50 for various compounds
target: XIAP BIR3 (Homo sapiens); construct: His-BIR3 (241-356, XIAP); assay: XIAP-BIR3/SMAC Homogeneous Time Resolved Fluorescence (HTRF) Assay; format: binding

| chemical.string | IC50 (nM) |
| --- | --- |
| CN[C@@H](C)C(=O)N[C@H](C(=O)N1C[C@@H](c2ccc3c(c2)CN(C(=O)[C@@H](NC(=O)[C@H](C)NC)C(C)(C)C)[C@H](C(=O)N[C@@H]2CCCc4ccccc42)C3)C[C@H]1C(=O)N[C@@H](Cc1ccccc1)C(=O)NCCc1ccccc1)C(C)(C)C | 13.3 |
| CN[C@@H](C)C(=O)N[C@H](C(=O)N1C[C@@H](c2ccc3c(c2)CN(C(=O)[C@@H](NC(=O)[C@H](C)NC)C(C)(C)C)[C@H](C(=O)N[C@@H]2CCCc4ccccc42)C3)C[C@H]1C(=O)N[C@@H](Cc1ccccc1)C(=O)Nc1ccccc1)C(C)(C)C | 4.9 |
| CCN(CC)C(=O)[C@H](Cc1ccccc1)NC(=O)[C@@H]1C[C@H](c2ccc3c(c2)CN(C(=O)[C@@H](NC(=O)[C@H](C)NC)C(C)(C)C)[C@H](C(=O)N[C@@H]2CCCc4ccccc42)C3)CN1C(=O)[C@@H](NC(=O)[C@H](C)NC)C(C)(C)C | 9.2 |
| CN[C@@H](C)C(=O)N[C@H](C(=O)N1Cc2cc(O[C@H]3C[C@@H](C(=O)N[C@@H]4CCCc5ccccc54)N(C(=O)[C@@H](NC(=O)[C@H](C)NC)C(C)(C)C)C3)ccc2C[C@H]1C(=O)N[C@@H]1CCCc2ccccc21)C(C)(C)C | 30 |

---

Quick list: pIC50 per entry.
target: XIAP BIR2-3 (Homo sapiens, UniProt P98170, C202A/C213G); construct: His-BIR2-3 (125-356, C202A/C213G, XIAP); experiment: XIAP-BIR2-3 dimeric SMAC Peptide Homogeneous Time Resolved Fluorescence (HTRF) Assay; format: binding; details: 0.5 nM N-His-BIR2-3 (125-356, C202A/C213G, XIAP), 20 nM fluorescein labeled dimeric SMAC peptide; HTRF signal; read-out: XIAP BIR2-3 IC50
Sequence (P98170 125-356 C202A/C213G): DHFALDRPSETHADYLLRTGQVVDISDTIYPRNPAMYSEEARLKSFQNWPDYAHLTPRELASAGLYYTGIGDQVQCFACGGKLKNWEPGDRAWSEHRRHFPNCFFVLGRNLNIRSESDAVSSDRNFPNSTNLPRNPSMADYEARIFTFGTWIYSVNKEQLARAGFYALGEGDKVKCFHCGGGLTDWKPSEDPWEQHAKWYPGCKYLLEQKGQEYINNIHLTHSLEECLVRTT
pIC50: −log10 of the molar value.

| molecule | pIC50 |
| --- | --- |
| CN[C@@H](C)C(=O)N[C@H](C(=O)N1C[C@@H](c2ccc3c(c2)CN(C(=O)[C@@H](NC(=O)[C@H](C)NC)C(C)(C)C)[C@H](C(=O)N[C@@H]2CCCc4ccccc42)C3)C[C@H]1C(=O)N[C@@H](Cc1ccccc1)C(=O)NCc1nccs1)C(C)(C)C | 8.68 |
| CN[C@@H](C)C(=O)N[C@H](C(=O)N1Cc2cc(C(=O)N[C@H]3C[C@@H](C(=O)NC4CCCc5ccccc54)N(C(=O)[C@@H](NC(=O)[C@H](C)NC)C(C)(C)C)C3)ccc2C[C@H]1C(=O)NC1CCCc2ccccc21)C1CCOCC1 (some centres unmarked) | 8.70 |

---

target: XIAP BIR3 (Homo sapiens, UniProt P98170); construct: His-BIR3 (241-356, XIAP); test: XIAP-BIR3/SMAC Homogeneous Time Resolved Fluorescence (HTRF) Assay; type: binding; conditions: 1 nM N-His-BIR3 (241-356, XIAP), 5 nM fluorescein labeled SMAC peptide; HTRF signal; read-out: XIAP BIR3 IC50
IC50: recorded values
quantity: IC50 (nM)

| compound | meas.value |
| --- | --- |
| CN[C@@H](C)C(=O)N[C@@H](Cc1cc(F)cc(F)c1)C(=O)N1Cc2cc(C(=O)N[C@H]3C[C@@H](C(=O)N[C@@H]4CCCc5ccccc54)N(C(=O)[C@@H](NC(=O)[C@H](C)NC)C(C)(C)C)C3)ccc2C[C@H]1C(=O)N[C@@H]1CCCc2ccccc21 | 25 |
| CN[C@@H](C)C(=O)N[C@H](C(=O)N1Cc2cc([C@H]3C[C@@H](C(=O)N[C@@H]4CCCc5ccccc54)N(C(=O)[C@@H](NC(=O)[C@H](C)NC)C(C)(C)C)C3)ccc2C[C@H]1C(=O)N[C@@H](Cc1ccccc1)C(=O)OC)C(C)(C)C | 1.5 |
| CN[C@@H](C)C(=O)N[C@H](C(=O)N1C[C@@H](c2ccc3c(c2)CN(C(=O)[C@@H](NC(=O)[C@H](C)NC)C(C)(C)C)[C@H](C(=O)N[C@@H]2CCCc4ccccc42)C3)C[C@H]1C(=O)N[C@@H](Cc1ccccc1)C(=O)N(C)CCOC)C(C)(C)C | 37.7 |
| CN[C@@H](C)C(=O)N[C@H](C(=O)N1C[C@@H](c2ccc3c(c2)CN(C(=O)[C@@H](NC(=O)[C@H](C)NC)C(C)(C)C)[C@H](C(=O)N[C@@H]2CCCc4ccccc42)C3)C[C@H]1C(=O)N[C@@H](Cc1ccccc1)C(=O)Nc1nncs1)C(C)(C)C | 3.4 |
| CN[C@@H](C)C(=O)N[C@H](C(=O)N1CC(c2ccc3c(c2)CN(C(=O)[C@@H](NC(=O)[C@H](C)NC)C(C)(C)C)[C@H](C(=O)NC2CCCc4ccccc42)C3)C[C@H]1C(=O)NC(Cc1ccccc1)C(=O)NCc1ccc(OC)cc1)C(C)(C)C (stereo in doubt) | 8.9 |
| CN[C@@H](C)C(=O)N[C@H](C(=O)N1C[C@@H](c2ccc3c(c2)CN(C(=O)[C@@H](NC(=O)[C@H](C)NC)C(C)(C)C)[C@H](C(=O)N[C@@H]2CCCc4ccccc42)C3)C[C@H]1C(=O)N[C@@H](Cc1ccccc1)C(=O)NCc1nccs1)C(C)(C)C | 9.3 |
| CN[C@@H](C)C(=O)N[C@H](C(=O)N1Cc2cc([C@H]3C[C@@H](C(=O)N[C@@H](Cc4ccc5ccccc5c4)C(=O)O)N(C(=O)[C@@H](NC(=O)[C@H](C)NC)C(C)(C)C)C3)ccc2C[C@H]1C(=O)N[C@@H](Cc1ccc2ccccc2c1)C(=O)O)C(C)(C)C | 19.2 |
| CN[C@@H](C)C(=O)N[C@H](C(=O)N1Cc2cc([C@H]3C[C@@H](C(=O)N[C@H](COC)Cc4ccccc4)N(C(=O)[C@@H](NC(=O)[C@H](C)NC)C(C)(C)C)C3)ccc2C[C@H]1C(=O)N[C@H](COC)Cc1ccccc1)C(C)(C)C | 31.4 |
| CN[C@@H](C)C(=O)N[C@H](C(=O)N1Cc2cc([C@H]3C[C@@H](C(=O)N[C@@H]4CCCc5ccccc54)N(C(=O)[C@@H](NC(=O)[C@H](C)NC)C(C)(C)C)C3)ccc2C[C@H]1C(=O)N[C@@H]1CCCc2ccccc21)C1CCOCC1 | 3 |
| CN[C@@H](C)C(=O)N[C@H](C(=O)N1C[C@@H](c2ccc3c(c2)CN(C(=O)[C@@H](NC(=O)[C@H](C)NC)C(C)(C)C)[C@H](C(=O)N[C@@H]2CCCc4ccccc42)C3)C[C@H]1C(=O)N[C@@H](Cc1ccccc1)C(=O)NCCOC)C(C)(C)C | 22.1 |
| CN[C@@H](C)C(=O)N[C@H](C(=O)N1Cc2cc([C@H]3C[C@@H](C(=O)N[C@@H]4CCCc5ccccc54)N(C(=O)[C@@H](NC(=O)[C@H](C)NC)C(C)(C)C)C3)ccc2C[C@H]1C(=O)N[C@H](CO)Cc1ccccc1)C(C)(C)C | 4.8 |

---

compounds and their reported pIC50
biological target: XIAP BIR3 (Homo sapiens); construct: His-BIR3 (241-356, XIAP); test: XIAP-BIR3/SMAC Homogeneous Time Resolved Fluorescence (HTRF) Assay; assay type: binding; settings: 1 nM N-His-BIR3 (241-356, XIAP), 5 nM fluorescein labeled SMAC peptide; HTRF signal; read-out: XIAP BIR3 IC50
pIC50: −log10 of the molar value.

| compound | pIC50 |
| --- | --- |
| CN[C@@H](C)C(=O)N[C@H](C(=O)N1Cc2cc([C@H]3C[C@@H](C(=O)N[C@@H]4CCCc5ccccc54)N(C(=O)[C@@H](NC(=O)[C@H](C)NC)C(C)(C)C)C3)ccc2C[C@H]1C(=O)N[C@H](COC)Cc1ccccc1)C(C)(C)C [Example 39] | 8.14 |
| CN[C@@H](C)C(=O)N[C@H](C(=O)N1C[C@@H](c2ccc3c(c2)CN(C(=O)[C@@H](NC(=O)[C@H](C)NC)C(C)(C)SCC(=O)N(C)C)[C@H](C(=O)N[C@@H]2CCCc4ccccc42)C3)C[C@H]1C(=O)N[C@@H]1CCCc2ccccc21)C(C)(C)C [Example 30] | 8.41 |

---

Biological target: XIAP BIR2-3 (Homo sapiens, UniProt P98170, C202A/C213G)
Construct: His-BIR2-3 (125-356, C202A/C213G, XIAP)
Assay: XIAP-BIR2-3 dimeric SMAC Peptide Homogeneous Time Resolved Fluorescence (HTRF) Assay
Format: binding
Details: 0.5 nM N-His-BIR2-3 (125-356, C202A/C213G, XIAP), 20 nM fluorescein labeled dimeric SMAC peptide; HTRF signal; read-out: XIAP BIR2-3 IC50
Experimental: B. […] Assays were performed in black, flat-bottom, 384-well plates. […] Compounds were dissolved at 3 mM in dimethylsulfoxide (DMSO) and evaluated at eleven serially diluted concentrations. IC50 and Ki values were derived by non-linear regression analysis.
pIC50: −log10 of the molar value.

| chemical.string | pIC50 |
| --- | --- |
| CN[C@@H](C)C(=O)N[C@H](C(=O)N1C[C@@H](c2ccc3c(c2)CN(C(=O)[C@@H](NC(=O)[C@H](C)NC)C(C)(C)C)[C@H](C(=O)N[C@@H]2CCCc4ccccc42)C3)C[C@H]1C(=O)N[C@@H](Cc1ccccc1)C(=O)NS(=O)(=O)c1ccc2ccccc2c1)C(C)(C)C | 9.30 |
| CN[C@@H](C)C(=O)N[C@H](C(=O)N1Cc2cc(C(=O)N[C@H]3C[C@@H](C(=O)N[C@@H]4CCCc5ccccc54)N(C(=O)[C@@H](NC(=O)[C@H](C)NC)C(C)(C)C)C3)ccc2C[C@H]1C(=O)N[C@@H]1CCCc2ccccc21)C1CCCC1 | 7.82 |
| CN[C@@H](C)C(=O)N[C@H](C(=O)N1Cc2cc([C@H]3C[C@@H](C(=O)N[C@H](COC)Cc4ccccc4)N(C(=O)[C@@H](NC(=O)[C@H](C)NC)C(C)(C)C)C3)ccc2C[C@H]1C(=O)N[C@H](COC)Cc1ccccc1)C(C)(C)C | 8.09 |
| CN[C@@H](C)C(=O)N[C@H](C(=O)N1C[C@@H](c2ccc3c(c2)CN(C(=O)[C@@H](NC(=O)[C@H](C)NC)C(C)(C)C)[C@H](C(=O)N[C@@H]2CCCc4ccccc42)C3)C[C@H]1C(=O)N[C@@H](Cc1ccccc1)C(=O)Nc1cccc(C#N)c1)C(C)(C)C | 8.66 |
| CN[C@@H](C)C(=O)N[C@H](C(=O)N1Cc2cc([C@H]3C[C@@H](C(=O)N[C@@H]4CCCc5ccccc54)N(C(=O)[C@@H](NC(=O)[C@H](C)NC)C(C)(C)C)C3)ccc2C[C@H]1C(=O)N[C@@H](Cc1ccccc1)C(=O)N(C)C)C(C)(C)C | 8.92 |
| CN[C@@H](C)C(=O)N[C@H](C(=O)N1Cc2cc(C(=O)N[C@H]3C[C@@H](C(=O)N[C@@H]4CCCc5ccccc54)N(C(=O)[C@@H](NC(=O)[C@H](C)NC)C(C)(C)C)C3)ccc2C[C@H]1C(=O)N[C@@H]1CCCc2ccccc21)C(c1ccccc1)c1ccccc1 | 6.44 |
| CN[C@@H](C)C(=O)N[C@H](C(=O)N1C[C@@H](c2ccc3c(c2)CN(C(=O)[C@@H](NC(=O)[C@H](C)NC)C(C)(C)C)[C@H](C(=O)N[C@@H]2CCCc4ccccc42)C3)C[C@H]1C(=O)N[C@@H](Cc1ccccc1)C(=O)NCCC(C)C)C(C)(C)C | 8.82 |
